Experiment: Solubility in aqueous solutions at various pH's
Format: physicochemical
Settings: aqueous solution, aqueous buffer, thermodynamic from solid; Buffer pH 9; read-out: Solubility
Where a name gives a salt, the structure may show the parent alone.
quantity.name: solubility (µg/mL)
Provide only the numeric value, understood in µg/mL.

Give me measured solubility, please, for this compound: CC[C@@H](c1ccccc1)N1Cc2cc3c(cc2C[C@H]1C(=O)N[C@@H](Cc1ccc(-c2ccnc(C)c2C)cc1)C(=O)O)OC[C@H](c1ccc(OCc2ccc(Cl)c(Cl)c2)cc1)O3 [OAD2 dihydrochloride]
50

----------
Assay: Solubility in aqueous solutions at various pH's
Assay type: physicochemical
Details: aqueous solution, simulated gastric fluid, thermodynamic from solid; solvent 0.1 HCl; read-out: Solubility
Structures can show the parent of a compound that is named as a salt.
quantity.name: solubility

Given the compound CC[C@@H](c1ccccc1)N1Cc2cc3c(cc2C[C@H]1C(=O)N[C@@H](Cc1ccc(-c2ccnc(C)c2C)cc1)C(=O)O)OC[C@H](c1ccc(OCc2ccc(Cl)c(Cl)c2)cc1)O3 [OAD2 dihydrochloride] , write its reported solubility.
> 51 mg/mL

----------
Assay: Solubility in aqueous solutions at various pH's
Format: physicochemical
Details: aqueous solution, aqueous buffer, thermodynamic from solid; Buffer pH 7; read-out: Solubility
Counter-ions that a name gives are not always drawn.
quantity.name: solubility (mg/mL)
Hi! Could you send only the number? It should be in mg/mL, unit omitted.

Supply recorded solubility for CC[C@@H](c1ccccc1)N1Cc2cc3c(cc2C[C@H]1C(=O)N[C@@H](Cc1ccc(-c2ccnc(C)c2C)cc1)C(=O)O)OC[C@H](c1ccc(OCc2ccc(Cl)c(Cl)c2)cc1)O3 [OAD2 dihydrochloride] here.
0.09

----------
Assay: Solubility in aqueous solutions at various pH's
Type: physicochemical
Conditions: aqueous solution, aqueous buffer, thermodynamic from solid; solvent 0.1 NaOH; read-out: Solubility
Where a name gives a salt, the structure may show the parent alone.
quantity.name: solubility (µg/mL)
Field format: number, assumed µg/mL, no unit text.

Tell me solubility reported for CC[C@@H](c1ccccc1)N1Cc2cc3c(cc2C[C@H]1C(=O)N[C@@H](Cc1ccc(-c2ccnc(C)c2C)cc1)C(=O)O)OC[C@H](c1ccc(OCc2ccc(Cl)c(Cl)c2)cc1)O3 [OAD2 dihydrochloride]
17
